Catalogue of EC50 readings, one per entry.
- SYSTEM TESTED: T1, PD-L1 on 293T cells (UniProt Q9NZQ7 19-290)
- T1 construct: whole, on cells; also called PD-L1-293T; 293T-PD-L1 cells
- T1 sequence (Q9NZQ7 19-290 limits assumed): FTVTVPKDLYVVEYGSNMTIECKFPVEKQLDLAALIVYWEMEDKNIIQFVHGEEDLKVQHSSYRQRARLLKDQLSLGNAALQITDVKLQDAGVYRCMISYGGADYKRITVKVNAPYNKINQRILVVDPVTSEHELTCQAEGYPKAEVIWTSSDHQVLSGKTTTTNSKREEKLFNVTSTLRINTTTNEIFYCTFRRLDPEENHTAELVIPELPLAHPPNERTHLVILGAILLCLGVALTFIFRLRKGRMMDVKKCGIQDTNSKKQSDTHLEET
- ASSAY REMARKS: flow cytometry on PD-L1-293T cells
Numeric only. Scale: µg/mL

Check out these entries, answers already filled in.
m5G9 (antibody, V domains shown, Murine hybridoma IgG (printed 'mIgG'); also called 5G9-mIgG; 5G9 murine) VH: EVKLVESGGGLVKPGGSLKLSCAASGFTFRSYGMSWVRQTPEKRLEWVASISSGGTTYYPDSVKGRFIISRDNARNILYLQMSSLRSEDTAMYYCAKGYDSGFAYWGQGTLVIVSA VL: DIVLTQSPPSLAVSLGQRATISCRASQSVSTSSSSYMHWYQQKPGQPPKLLIKYASNLESGVPARFSGSGSGTDFTLNIHPVEEEDTATYYCQHSWEIPYTFGGGTKLEIK    0.0337
m8H4 (antibody, V domains shown, Murine hybridoma IgG (printed 'mIgG'); also called 8H4-mIgG; 8H4 murine) VH: EVKLVESGGGLVKPGGSLKLSCAASGFTFRSYGMSWARQIPEKRLEWVASISSGGTTYYLGSVQGRFTISRDNARNILYLQMSSLRSEDTAMYYCARGYDAGFAYWGQGTLVSVSE VL: DIVLTQSPASLAVSLGQRATISCRASQSVSTSSYSYMHWYQQKPGQPPKLLIKYASNLESGVPARFSGSGSGTDFTLNIHPVEEEDTATYYCQNSWEIPYTFGGGTKLEIK    0.0435
m15F1 (antibody, V domains shown, Murine hybridoma IgG (printed 'mIgG'); also called 15F1-mIgG; 15F1 murine) VH: EEKLVESGGGLVKPGGSLKLSCAASGFSFSSYGMSWVRQTPEKRLEWVASISSGGSIYYPDSVKGRFTISRDNARNILYLQMSSLRSEDTAMYYCARGYDAGFAFWGQGTLVTASA VL: DIVLTQSPASLAVSLGQRATISCRASQSVSTSSYSYVHWYQQKPGQPPKLLIKYASNLESGVPARFSGSGSGTDFTLNIHPVEEEDTATYYCQHSWEIPYTFGGGTKLEIK    0.0478
m5G11 (antibody, V domains shown, Murine hybridoma IgG (printed 'mIgG'); also called 5G11-mIgG; 5G11 murine) VH: QVQLKQSGPGLVQPSQSLSITCTVSGFSLTTYGVHWVRQSPGKGLEWLGVIWRGVTTDYNAAFMSRLTITKDNSKSQVFFKMNSLQANDTAIYYCARLGFYAMDYWGQGTSVTVSS VL: SIVMTQTPKFLLVSAGDRVTITCKASQSVSNDVAWYQQKPGQSPKLLIYYAANRYTGVPDRFTGSGYGTDFTFTISIVQAEDLAVYFCQQDYTSPYTFGGGTKLEIK    0.0359

q: Name the recorded EC50 of the binder listed here: m8C6 (antibody, V domains shown, Murine hybridoma IgG (printed 'mIgG'); also called 8C6-mIgG; 8C6 murine) VH: QVQLKQSGPGLVQPSQSLSITCTVSGFSLTSYGVHWVRQSPGKGLEWLGVIWSGGVTDYNAAFISRLSISKDNSKSQVFFKMNSLQANDTAIYYCARLGFYAMDYWGQGTSVTVSS VL: SIVMTQTPKFLLVSAGDRVTITCKASQSVSNDVGWYQQKPGQSPKLLIYYASNRYSGVPDRFTGSGYGTDFTFTISTVQAEDLAVYFCQQDYTSPYTFGGGTKLEIK
a: 0.041
